Every entry's value here was drawn from patent US20200216522A1.

The reader will find reported kon values listed item by item below.
# Target desc: T1, full-length human Tau (Tau441; 2N4R), recombinant (human, UniProt P10636 1-758)
# T1 construct: made in E. coli, His6-Smt3 tag removed; biotinylated through amines for Octet and phage work; also called r-Tau; recombinant Tau
# T1 sequence (P10636 other isoform, or with tags, fused parts or gaps limits assumed): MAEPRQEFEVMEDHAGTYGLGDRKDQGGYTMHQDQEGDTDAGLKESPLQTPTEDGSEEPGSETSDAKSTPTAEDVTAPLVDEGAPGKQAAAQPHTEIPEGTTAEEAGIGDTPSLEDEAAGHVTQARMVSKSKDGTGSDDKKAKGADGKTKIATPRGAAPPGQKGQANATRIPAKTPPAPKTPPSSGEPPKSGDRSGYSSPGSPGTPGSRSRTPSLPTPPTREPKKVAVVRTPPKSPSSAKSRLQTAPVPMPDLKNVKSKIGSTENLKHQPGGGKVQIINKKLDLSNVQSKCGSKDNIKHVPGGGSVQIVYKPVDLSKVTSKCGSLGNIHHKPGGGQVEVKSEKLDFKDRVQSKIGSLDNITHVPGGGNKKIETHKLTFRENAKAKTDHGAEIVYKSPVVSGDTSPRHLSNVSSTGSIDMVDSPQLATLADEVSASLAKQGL
# Assay text: SPR Biacore

Binder	kon, M⁻¹ s⁻¹
Clone with L3_7 (antibody, V domains shown, based on hu1C7.v2) VH: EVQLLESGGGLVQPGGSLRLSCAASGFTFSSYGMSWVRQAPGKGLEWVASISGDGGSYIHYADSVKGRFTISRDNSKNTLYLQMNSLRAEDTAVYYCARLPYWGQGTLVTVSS VL: DIVMTQSPDSLAVSLGERATINCKSSQSLLNSGNQKNYLTWYQQKPGQPPKLLIYWASTRESGVPDRFSGSGSGTDFTLTISSLQAEDVAVYYCQQYNAYPLTFGQGTKVEIKR	685000
Clone with L1_3 (antibody, V domains shown, IgG based on hu1C7.v2) VH: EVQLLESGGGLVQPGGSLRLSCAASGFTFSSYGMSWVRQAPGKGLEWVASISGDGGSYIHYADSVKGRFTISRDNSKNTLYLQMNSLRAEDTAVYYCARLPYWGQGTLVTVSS VL: DIVMTQSPDSLAVSLGERATINCKSSQSLHRSGTQKDYLVWYQQKPGQPPKLLIYWASTRESGVPDRFSGSGSGTDFTLTISSLQAEDVAVYYCQQYNSYPLTFGQGTKVEIK	1.22e+06
Clone with L1_3, L3, and H1_HCv2 (antibody, V domains shown) VH: EVQLLESGGGLVQPGGSLRLSCAASGFTFSQVGMSWVRQAPGKGLEWVASISGDGGSYIHYADSVKGRFTISRDNSKNTLYLQMNSLRAEDTAVYYCARLPYWGQGTLVTVSS VL: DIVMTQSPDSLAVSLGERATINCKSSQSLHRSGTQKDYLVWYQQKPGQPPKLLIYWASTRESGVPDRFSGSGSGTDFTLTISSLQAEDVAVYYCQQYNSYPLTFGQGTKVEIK	982000
Clone with H1_4 (antibody, V domains shown, IgG based on hu1C7.v2) VH: EVQLLESGGGLVQPGGSLRLSCAASGFRFSGPGMSWVRQAPGKGLEWVASISGDGGSYIHYADSVKGRFTISRDNSKNTLYLQMNSLRAEDTAVYYCARLPYWGQGTLVTVSS VL: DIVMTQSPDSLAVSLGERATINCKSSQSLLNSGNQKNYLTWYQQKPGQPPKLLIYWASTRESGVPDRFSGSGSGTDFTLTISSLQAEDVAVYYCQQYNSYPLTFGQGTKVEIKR	564000
Clone with H2_2 (antibody, V domains shown, based on hu1C7.v2) VH: EVQLLESGGGLVQPGGSLRLSCAASGFTFSSYGMSWVRQAPGKGLEWVASISGTGGSYIHYADSVKGRFTISRDNSKNTLYLQMNSLRAEDTAVYYCARLPYWGQGTLVTVSS VL: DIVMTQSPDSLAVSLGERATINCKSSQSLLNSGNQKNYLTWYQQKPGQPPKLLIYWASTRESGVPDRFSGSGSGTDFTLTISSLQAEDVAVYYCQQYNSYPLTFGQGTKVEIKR	415000
